Recorded measurements of dH, one per entry
- SYSTEM NAME: T1, Rnd2 GTPase (residues 1-227), loaded with GMPPNP (UniProt P52198 1-227)
- T1 sequence (looked up): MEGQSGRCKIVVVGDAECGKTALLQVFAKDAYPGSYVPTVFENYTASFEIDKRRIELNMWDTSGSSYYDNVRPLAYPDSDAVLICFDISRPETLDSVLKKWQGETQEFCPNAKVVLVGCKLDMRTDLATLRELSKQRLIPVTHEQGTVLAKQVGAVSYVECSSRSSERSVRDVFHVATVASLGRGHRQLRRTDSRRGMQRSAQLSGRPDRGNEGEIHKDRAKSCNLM
- TEST DESCRIPTION: ITC
Reply numerically in kJ/mol, unit not repeated.

I have this binder here, plexin-D1 Rho GTPase binding domain (RBD), residues 1553-1678 (domain or fragment, human, UniProt Q9Y4D7 1553-1678, looked up) AKPRNLNVSFQGCGMDSLSVRAMDTDTLTQVKEKILEAFCKNVPYSQWPRAEDVDLEWFASSTQSYILRDLDDTSVVEDGRKKLNTLAHYKIPEGASLAMSLIDKKDNTLGRVKDLDTEKYFHLVL , and I need its recorded dH.
-1.67

We next turn to a different binder, shown below.
Data request, read-out dH, for plexin-B1 RBD L1815K (domain or fragment) YRPLTLNALLAVGPGAGEAQGVPVKVLDCDTISQAKEKMLDQLYKGVPLTQRPDPRTLDVEWRSGVAGHKILSDEDVTSEVQGLWRRLNTLQHYKVPDGATVALVPC
-13.4
